Test system: MM1.S cells
Assay: In vitro anti-proliferation test on MM1.S cells (CellTiter-Glo)
Type: cell-based
Settings: Homo sapiens, 48 h, 2 days incubation, cell viability
This listing pairs molecules with measured log10 of IC50.
# log10 transformed; quantity=IC50; unit=nM

Examples from the recorded data:
1. CC(C)CC(NC(=O)[C@H](Cc1ccccc1)NC(=O)[C@@H]1CCN1c1nccc(-c2ccccc2)n1)B(O)O (stereo partly shown): 0.76
2. CC(C)CC(NC(=O)CNC(=O)[C@@H]1CCN1c1ccc(F)cc1Cl)B(O)O (stereo partly shown): 2.08
3. CC(C)CC(NC(=O)CNC(=O)[C@@H]1CCN1c1c(F)cc(Cl)cc1F)B(O)O (stereo partly shown): 1.43
4. CC(C)CC(NC(=O)[C@H](C)NC(=O)[C@@H]1CCN1c1ncc(F)cn1)B(O)O (single isomer, unassigned): 1.39
5. CC(C)CC(NC(=O)[C@H](Cc1ccccc1)NC(=O)[C@@H]1CCN1c1ccc(F)cc1)B(O)O (single isomer, unassigned): 0.91
6. CC(C)CC(NC(=O)CNC(=O)[C@@H]1CCN1c1ccc(C(F)(F)F)cc1Cl)B(O)O (stereo partly shown): 1.66

Report measured log10 of IC50 on MM1.S cells; entry: CC(C)CC(NC(=O)CNC(=O)[C@@H]1CCN1c1ccc(C(F)(F)F)nn1)B(O)O (stereo partly shown)
2.26

###

System: MM1.S cells
Assay: In vitro anti-proliferation test on MM1.S cells (CellTiter-Glo)
Assay type: cell-based
Details: Homo sapiens, 48 h, 2 days incubation, cell viability
measurement-name: pIC50
Reminder that pIC50 means the negative base-10 logarithm of the concentration expressed in mol/L.

1) CC(C)CC(NC(=O)CNC(=O)[C@@H]1CCN1c1ccc(F)cc1F)B(O)O (single isomer, unassigned): 9.00
2) CC(C)CC(NC(=O)CNC(=O)[C@@H]1CCN1c1ccc(Cl)cc1C(F)(F)F)B(O)O (stereo partly drawn): 6.98

Turning to the following compound.
Identify pIC50 associated with the compound CC(C)CC(NC(=O)CNC(=O)[C@@H]1CCN1c1ccc(F)cn1)B(O)O (single isomer, unassigned)
7.49
